Tested on: EKVX NSCLC
Assay: NCI tumour cell line growth inhibition, 48 h
Cut-off 20 µM on TGI, inclusive. At or above means Y; below means N.

Illustrative cases are given below, each with its answer.
COMPOUND	DISCRETE LABEL
Cc1cc2c(C(C)C)c(O)c(O)c(/C=N/O)c2c(O)c1-c1c(C)cc2c(C(C)C)c(O)c(O)c(/C=N/O)c2c1O	N
Cc1cccc2c(N)c3cccc(C(=O)NCCNCCN)c3nc12	Y
COc1ccc(/C=C/C(=O)C(=O)/C=C/c2ccc(OC)c(OC)c2)cc1OC	Y
Cc1cc(C(O)CCCc2ccccc2)cc(C)c1O (centres undefined)	Y
C=C1[C@@H](OC(C)=O)/C=C/C2C3C(=O)[C@@](C)(OC(C)=O)[C@H]([C@H](OC(C)=O)[C@]4(O)[C@@H](C)C(=O)O[C@H]4[C@H]1Cl)[C@@]23C (some centres undefined)	Y

Query: Would you say `CC(C)(C)c1cc(Cc2ccc(S(C)(=O)=O)cc2)c(O)c(C(C)(C)C)c1` shows TGI at minimum 20 µM?
Response: Y

Query: Would you say `CCc1nc(N)nc(N)c1-c1ccc(N2CCNCC2)c([N+](=O)[O-])c1` shows TGI at minimum 20 µM?
Response: Y

Query: Would you say Nc1nc2c(ncn2C2OC(CO)C(O)C2O)c(=O)o1 (centres undefined) shows TGI at minimum 20 µM?
Response: Y

---

System: HCC-2998 colon
Experiment: NCI tumour cell line growth inhibition, 48 h
Below: a set of entries, each annotated with reported TGI.

>>> print(df.to_string())
                                   molecule  quantity_measured    result
0  O=[N+]([O-])c1ccc(C2=NOC(c3ccccc3)N2C23CC4CC(CC(C4)C2)C3)cc1 (centres undefined)                TGI  > 100 µM
1                              C#CCNCC(=O)O                TGI  > 100 µM
2         CS(=O)(=O)ON1C(=O)c2ccc(N)cc2C1=O                TGI  > 100 µM

Query: What value of TGI has been reported for the following molecule? COc1cc(C2C=C(C)N=C3SC=C(C)N32)cc(OC)c1OC (centres undefined)
Response: 3.54 µM

---

Test system: BT-549 breast
Experiment: NCI tumour cell line growth inhibition, 48 h
Below: a set of entries, each annotated with reported TGI.

Look over these answered cases.
COMPOUND	TGI
CC1=C(C)C2(C#N)C(=O)N3C(=NC(c4ccco4)NC3c3ccco3)C2(C#N)C(c2ccco2)N1 (centres undefined)	> 100 µM
C=C1[C@@H](OC(C)=O)/C=C/C2C3C(=O)[C@@](C)(OC(C)=O)[C@H]([C@H](OC(C)=O)[C@]4(O)[C@@H](C)C(=O)O[C@H]4[C@H]1Cl)[C@@]23C (some centres undefined)	> 100 µM
CN1CCN(CCCCCOc2cc(O)c3c(=O)cc(-c4ccccc4)oc3c2)CC1	29.7 µM
CNc1ccc(C)cc1S(=O)(=O)c1ccccc1[N+](=O)[O-]	> 100 µM
C=C(C)C1Cc2c(cc3c(c2O)c(=O)c2ccccc2n3C)O1 (centres undefined)	3.28 µM

Query: What value of TGI has been reported for the following compound? `O=C(Cc1csc2[n+]1C(=O)/C(=C/c1ccc(Cl)cc1)S2)Nc1ccccc1`
Response: 60.3 µM

Query: What value of TGI has been reported for the following compound? COC(=O)C1=C(C)NC(CF)=C(C(=O)OC)C1c1cccc2c(=O)c3ccccc3oc12 (centres undefined)
Response: > 100 µM

Query: What value of TGI has been reported for the following compound? COC(=O)c1ccccc1C1CN=NC12Cc1cc3c(cc1C2=O)CCC3 (centres undefined)
Response: > 100 µM

Query: What value of TGI has been reported for the following compound? `CSc1ncc2c(C#N)c3n(C)c4ccccc4n3c(=O)c2n1`
Response: > 100 µM

---

Below: a set of entries, each annotated with reported TGI.
Tested on: SK-MEL-28 melanoma
Assay: NCI tumour cell line growth inhibition, 48 h

Look over these answered cases.
>>> print(df.to_string())
                                   compound  quantity_measured    result
0  O=[N+]([O-])c1ccc(C2=NOC(c3ccccc3)N2C23CC4CC(CC(C4)C2)C3)cc1 (stereo not given)                TGI  > 100 µM
1  N#CC(Cl)CS(=O)(=O)c1ccccc1 (stereo not given)                TGI     28 µM

Query: What value of TGI has been reported for the following compound? C#CC(O)/C=C/C(O)CCCC(O)CC#CC(O)C#CCCCCC(O)/C=C/CCCCCC(=O)CCCCCCCCCCCCCC(O)C(O)C#CC(=O)O (stereo not given)
Response: > 25 µM

Query: What value of TGI has been reported for the following compound? `Cc1c(CN2CCOCC2)c(CN2CCOCC2)c(C)n1-c1ccc(Cl)cn1`
Response: > 100 µM

Query: What value of TGI has been reported for the following compound? `CN(C)CCNc1ncnc2nc(-c3ccccc3)c(-c3ccccc3)nc12`
Response: > 100 µM

Query: What value of TGI has been reported for the following compound? `Nc1ccc(C2(c3ccc(N)cc3)C3CC4CC(C3)CC2C4)cc1`
Response: > 100 µM

Query: What value of TGI has been reported for the following compound? COC(=O)C1=C(C)NC(CF)=C(C(=O)OC)C1c1cccc2c(=O)c3ccccc3oc12 (stereo not given)
Response: > 100 µM

---

Test system: BT-549 breast
Assay: NCI tumour cell line growth inhibition, 48 h
Below: a set of entries, each annotated with reported GI50.

Query: What value of GI50 has been reported for the following molecule? `CCN(CC)Cc1cc(Nc2ccnc3ccc(OC)cc23)ccc1O`
Response: 9.53 µM

---

Tested on: SR leukemia
Assay: NCI tumour cell line growth inhibition, 48 h
Below: a set of entries, each annotated with reported TGI.

MOLECULE	TGI
Nc1nc(N)c(N=Nc2ccccc2)c(=O)[nH]1	> 100 µM
CC1(C)COC(c2cccc(C(O)c3ccc(Cl)cc3)c2)=N1 (stereo unspecified)	> 100 µM
CN(C)C12C=CC=CC3=C(c4ccccc4)C(c4ccccc4)=C(c4ccccc4)C31c1ccccc1C2 (stereo unspecified)	> 100 µM
Cc1[nH]c(N)nc(=S)c1CCCNc1ccccc1	96.9 µM
[N-]=[N+]=NC1(Cc2ccccc2)C(=O)Nc2ccccc2C1=O (stereo unspecified)	> 100 µM

Query: What value of TGI has been reported for the following molecule? CC1=C(C)C2(C#N)C(=O)N3C(=NC(c4ccco4)NC3c3ccco3)C2(C#N)C(c2ccco2)N1 (stereo unspecified)
Response: > 100 µM

Query: What value of TGI has been reported for the following molecule? CN1CCOC1(C)c1ccccc1 (stereo unspecified)
Response: > 100 µM

---

Test system: OVCAR-8 ovarian
Assay: NCI tumour cell line growth inhibition, 48 h
Below: a set of entries, each annotated with reported TGI.
Kindly answer with a numeric value in µM, unit omitted.

Look over these answered cases.
                                   compound  quantity_measured  measurement_unit  numeric_value
0  O=c1[nH]c(-c2ccccc2)nc2cc([N+](=O)[O-])c(/C(Cl)=C/c3ccccc3)cc12                TGI                µM           45.4
1  Nc1ccc(C2(c3ccc(N)cc3)C3CC4CC(C3)CC2C4)cc1                TGI                µM           35.5
2  CN1CCN(CCCCCOc2cc(O)c3c(=O)cc(-c4ccccc4)oc3c2)CC1                TGI                µM           91.7
3  COC(=O)NCCc1[nH]nc2c1C(=O)C=C(Nc1ccccc1OC)C2=O                TGI                µM           35.1

Turning now to a further record.
Query: What value of TGI has been reported for the following compound? CC(NC1=NCCO1)c1ccsc1 (stereo unspecified)
Response: 77.7

---

Tested on: KM12 colon
Test: NCI tumour cell line growth inhibition, 48 h; in the data active = GI50 below about 0.43 µM; inactive = the rest
Hi there, use one of these labels in your reply, thanks! Y for active, N for inactive

COMPOUND	DISCRETE LABEL
[CH3][Ge]([CH3])([CH2]CC#N)[S]c1ccccc1	N
COc1cc(C2C=C(C)N=C3SC=C(C)N32)cc(OC)c1OC (centres undefined)	N
N#C/C(=C\c1ccc(O)c(O)c1)C(=O)NCc1cccc(C(F)(F)F)c1	N
Nc1ncc(-c2ccc3ncnc(N4CCc5cc(F)c(Cl)cc54)c3c2)cc1C=O	N
COC(=O)COc1ccccc1/C=C1/N=C(c2ccccc2)N(c2c(C)n(C)n(-c3ccccc3)c2=O)C1=O	N

Query: What classification did `[pH]1p2[pH]p3p1p3[pH]2.c1cc[c]([Ge]([c]2ccccc2)[c]2ccccc2)cc1.c1cc[c]([Ge]([c]2ccccc2)[c]2ccccc2)cc1.c1cc[c]([Ge]([c]2ccccc2)[c]2ccccc2)cc1` end up with in this test?
Response: N

Query: What classification did `Cc1ccc(/C=C(/C#N)n2nnc3cccc(F)c32)cc1` end up with in this test?
Response: Y

Query: What classification did `CCN(CC)Cc1cc(Nc2ccnc3ccc(OC)cc23)ccc1O` end up with in this test?
Response: N

Query: What classification did `Cc1ncnc2c1ccn2[C@@H]1C[C@H](Oc2cc(C(F)F)c(F)c3c2CNCC3)[C@@H](O)[C@H]1O` end up with in this test?
Response: N
